tested on: NCI-H322M lung; assay: NCI-60 one-dose screen, 48 h; conditions: 10 µM unless noted
About 83,000 compounds went through this panel and 20% of them were active in at least one assay; those are over-represented in the sample as a whole. Activity calls are given as the source filed them. How the source made its calls: active means growth percent below 10; inactive means the rest.
Log the outcome using a class from YES (active), NO (inactive)

INSERT INTO assay_data (compound, label_class) VALUES
  ('COC(=O)c1cc(C(C)=O)n2c3ccccc3c3ccccc3c12', 'NO'),
  ('COc1ccc(NC(=O)CSc2nnc(-c3ccc(-c4nc5ccc(Cl)cc5[nH]4)cc3)o2)cc1', 'NO'),
  ('O=C(CSc1nnc(-c2ccc(-c3nc4ccc(Cl)cc4[nH]3)cc2)o1)Nc1ccc(Br)cc1', 'YES'),
  ('COc1ccc2[nH]cc(-c3cc4nc(-c5cn(C)c6ncc(Br)cc56)cc(N)n4n3)c2c1', 'YES'),
  ('CN1C(=O)/C(=C\C(=O)c2cc3ccccc3oc2=O)c2ccccc21', 'NO'),
  ('O=C1NC(=NC23CC4CC(CC(C4)C2)C3)N/C1=C\c1ccc2ncccc2c1', 'NO'),
  ('COc1ccc(Nc2nnc(-c3c[nH]c4ccccc34)o2)cc1', 'NO'),
  ('O=CNc1cccc(-n2cnc3cc(-c4ccc(O)cc4)ccc32)c1', 'NO');

For this compound, state the assay outcome: Cc1cc(C(NC(=O)CCCCCNc2cccc3c2C(=O)N(C2CCC(=O)CC2=O)C3=O)c2cccc(N(C)C)c2)c(O)c2ncccc12 (stereo unspecified)
NO

For this compound, state the assay outcome: COc1ccc2[nH]c(O)c(N=NC(=O)c3ccc4nc(-c5ccc(Cl)cc5)[nH]c4c3)c2c1
NO

For this compound, state the assay outcome: CCCN(CCC)S(=O)(=O)c1ccc(C(=O)O)cc1.CCCN(CCC)S(=O)(=O)c1ccc(C(=O)O)cc1.[Cl][Pt+2][Cl].[NH2-].[NH2-]
NO

For this compound, state the assay outcome: Fc1ccc(F)c(CNc2nc(SCCN3CCOCC3)nc3c2cnn3CC(Cl)c2ccc(Br)cc2)c1 (stereo unspecified)
NO

For this compound, state the assay outcome: COc1ccc2[nH]c(=O)c(CSc3ccccc3Nc3nccc(-c4ccc5c(c4)OCO5)n3)cc2c1
NO

* * *

tested on: OVCAR-3 ovarian; assay: NCI-60 one-dose screen, 48 h (100 = growth as untreated, 0 = no growth, -100 = all killed); conditions: 10 µM unless noted
Compounds without any hit were thinned out: in the full panel of roughly 83,000, 20% have a hit.
quantity kind: growth (%)
// note: answer is a bare numeric in %

INSERT INTO results (compound, quantity_kind, value_unit, measured_result) VALUES
  ('Cn1cc(-c2cc3nc(-c4cn(C)c5ncccc45)cc(N)n3n2)c2cc(F)ccc21', 'growth', '%', 43.9),
  ('CC1CCc2c(sc3nc(SCC(=O)c4cccc(Br)c4)n(-c4ccccc4)c(=O)c23)C1 (stereo not given)', 'growth', '%', 55.7);

Reported growth of Cc1ccc(O)cc1Nc1nc(SCCN2CCOCC2)nc2c1cnn2CC(Cl)c1ccc(Br)cc1 (stereo not given) : 26.5

Reported growth of COc1ccc2[nH]c(O)c(N=Nc3nc(-c4ccc(Cl)cc4)cs3)c2c1 : -90.4

Reported growth of Oc1ccc(F)c(Nc2nc(SCCN3CCOCC3)nc3c2cnn3CC(Cl)c2ccc(Br)cc2)c1 (stereo not given) : 25.8

* * *

tested on: UO-31 renal; experiment: NCI-60 one-dose screen, 48 h; details: 10 µM unless noted
The panel holds about 83,000 compounds, 20% with a hit somewhere; the sample as a whole holds those more often. Calls of active or inactive are those of the source. How the source made its calls: active means growth percent below 10; inactive means the rest.
Log the outcome using a class from 1 (yes) = active, 0 (no) = inactive

Illustrative cases are given below, each with its answer.
INSERT INTO measurements (compound, label_class) VALUES
  ('Clc1ccc(-c2nc3ccc(-c4nnc(SCc5ccccc5)o4)cc3[nH]2)cc1', '0 (no)'),
  ('COc1ccc(-c2cc(-c3ccccc3)c(C#N)c(=O)[nH]2)cc1S(N)(=O)=O', '0 (no)'),
  ('COc1ccc2c(c1)c(-c1cc(N)n3nc(-c4c[nH]c5ccccc45)cc3n1)cn2C', '1 (yes)'),
  ('O=[N+]([O-])c1cccc(-c2nnc3c(/C=C/c4ccc(F)cc4)nc4ccccc4n23)c1', '0 (no)');

For this compound, state the assay outcome: COc1ccc(N=Nc2c(N)nn3c(-c4ccc(F)cc4)ccnc23)cc1
0 (no)

For this compound, state the assay outcome: CC(C)C[C@H](NC(=O)[C@@H]1CCCCCCCCCCC(=O)N[C@@H](CC(=O)N2CCC[C@@H]2C2CCCC2)C(=O)N1)B(O)O
1 (yes)

For this compound, state the assay outcome: COc1ccc(C(=O)c2c(N)c(C#N)cn2-c2ccc([N+](=O)[O-])cc2)cc1
0 (no)

For this compound, state the assay outcome: O=C(Cc1c(-c2cccc([N+](=O)[O-])c2)n(-c2ncnc3c2c(-c2ccccc2)c(-c2ccccc2)n3Cc2ccccc2)[nH]c1=O)c1ccc(Cl)c(Cl)c1
0 (no)

For this compound, state the assay outcome: COc1ccc(-c2cc(C)nc3[nH]c(=O)sc23)cc1
1 (yes)

For this compound, state the assay outcome: CN(C)CCCNC(=S)Nc1ccc(/C=C/c2ccc(Cl)cc2)cc1
1 (yes)

For this compound, state the assay outcome: CCOC(=O)/C(F)=C/C1CC1CCc1ccc(OCC)cc1 (stereo unspecified)
0 (no)

* * *

system: CAKI-1 renal; assay: NCI-60 one-dose screen, 48 h (100 = growth as untreated, 0 = no growth, -100 = all killed); details: 10 µM unless noted
This is part of a sample that, as a whole, favours compounds with a hit. Of some 83,000 tested, about 20% had one in any assay.
Note to self: values exactly at 50% are Condition met. So growth at or above 50% is Condition met, below is Condition not met.

INSERT INTO measurements (compound, label_class) VALUES
  ('COc1ccc(-c2nc3ccc(-c4nnc(SCc5ccccc5)o4)cc3[nH]2)cc1OC', 'Condition not met'),
  ('N#Cc1cc(-c2ccc3ncnc(N4CCc5cc(F)c(Cl)cc54)c3c2)cnc1N', 'Condition not met');

Is the recorded value of growth equal to or greater than 50% for this compound? O=c1ccc(Cn2c(C(F)(F)F)cc3c(Cl)ncnc32)c[nH]1
Condition met

Is the recorded value of growth equal to or greater than 50% for this compound? COc1ccccc1NC(=O)N/N=C/c1c[nH]c2ccccc12
Condition not met

Is the recorded value of growth equal to or greater than 50% for this compound? CS(=O)(=O)c1ccc(-n2nc(C(=O)NCc3ccccc3)cc2-c2ccc(Cl)cc2)cc1
Condition met

Is the recorded value of growth equal to or greater than 50% for this compound? O=C(NN1C(=O)/C(=C/C=C/c2ccc([N+](=O)[O-])o2)SC1=S)c1ccc(O)cc1
Condition not met

* * *

tested on: UACC-257 melanoma; experiment: NCI-60 one-dose screen, 48 h; settings: 10 µM unless noted
About 83,000 compounds went through this panel and 20% of them were active in at least one assay; those are over-represented in the sample as a whole. The source made the active and inactive calls. Rule for the calls: active = growth percent below 10; inactive = the rest.
Log the outcome using a class from 1.0 = active, 0.0 = inactive

Illustrative cases are given below, each with its answer.
INSERT INTO measurements (compound, test_target, label_class) VALUES
  ('CN(C)c1nc(NCCNS(=O)(=O)c2ccc(C(=O)/C=C/c3ccc(Cl)cc3)cc2)nc(N2CCOCC2)n1', 'UACC-257 melanoma', 0.0),
  ('COc1ccc(N=Nc2c(N)nn3c(N)c(C#N)c(-c4ccc(F)cc4)nc23)cc1', 'UACC-257 melanoma', 0.0),
  ('N#CCc1nnc(NC(=O)c2ccc(-n3c(=O)[nH]c4ccccc4c3=O)cc2)s1', 'UACC-257 melanoma', 0.0),
  ('CN1CCN(C(=O)CCN(C(=O)Oc2cc3c(c4ccccc24)[C@H](CCl)CN3C(=O)c2cc3cc(OCCCN4CCC4)ccc3[nH]2)[C@H]2CCSSC2)CC1', 'UACC-257 melanoma', 1.0),
  ('Fc1cccc(CNc2nc(SCCN3CCOCC3)nc3c2cnn3CC(Cl)c2ccc(Br)cc2)c1 (configuration not stated)', 'UACC-257 melanoma', 0.0),
  ('COc1ccc2c(c1)C(Sc1ccc(F)cc1)c1c(nc(N)c(C#N)c1N)O2 (configuration not stated)', 'UACC-257 melanoma', 0.0);

For this compound, state the assay outcome: COc1ccc(C2=Nc3c(N)nc(N)nc3NC(c3ccc(Oc4nc(Nc5ccc(F)cc5)nc(N(C)C)n4)c(OC)c3)C2)cc1 (configuration not stated)
0.0

For this compound, state the assay outcome: COc1ccc(CCC2NCCc3c(Br)c4c(c(OC)c32)OCO4)cc1 (configuration not stated)
0.0

For this compound, state the assay outcome: COc1ccc2c(c1)C(Sc1ccc(Cl)cc1)c1c(nc(N)c(C#N)c1N)O2 (configuration not stated)
0.0

For this compound, state the assay outcome: ClC(Cn1ncc2c(Nc3cccc(Br)c3)nc(SCCN3CCOCC3)nc21)c1ccc(Br)cc1 (configuration not stated)
1.0

For this compound, state the assay outcome: CCCCC[C@@H]1C/C=C(\C)[C@@H](O)C(C)(C)C(=O)[C@@H](C)/C=C(\C)[C@@H]2C[C@H](O)C[C@](O)(CC(=O)O1)O2
1.0

For this compound, state the assay outcome: COc1cccc(-c2ccc(/C=N/NC(=O)c3[nH]c4ccc(Br)cc4c3-c3ccccc3)s2)c1
0.0
